src = patent US20240158373A1

ASSAY SUMMARY: Tissue distribution test in rats (after Ritonavir)
Format: in vivo, SD male rats
CONDITION INFO: rat, po, 30 mg/kg, 30 mpk intragastric, with Ritonavir, lung, 0.25 h, read-out: Lung concentration at 0.25 h
PROPERTY LABEL: concentration at 0.25 h (µM)
One number for each entry, in µM.

concentration at 0.25 h reading for CC(C)(C)[C@H](NC(=O)C(F)(F)F)C(=O)N1[C@H]2C[C@@H]([C@H]1C(=O)N[C@H](C#N)C[C@@H]1CCNC1=O)C1(CC1)C2 : 15.8

* * *

ASSAY SUMMARY: Pharmacokinetics test of mice
Format: in vivo, C57BL/6J male mice
CONDITION INFO: mouse, plasma, iv, 3 mg/kg, i.v. 3 mpk
PROPERTY LABEL: AUC(0-t) (µM·h)
Answers are plain numbers, in µM·h.

AUC(0-t) reading for CC(C)(C)[C@H](NC(=O)C(F)(F)F)C(=O)N1[C@H]2C[C@@H]([C@H]1C(=O)N[C@H](C#N)C[C@@H]1CCNC1=O)C1(CC1)C2 [Compound 11] : 1.45

* * *

ASSAY SUMMARY: Tissue distribution test in rats (after Ritonavir)
Format: in vivo, SD male rats
CONDITION INFO: rat, lung, po, 30 mg/kg, with Ritonavir, 6 h, given as x/1, read-out: Lung/plasma ratio at 6 h
PROPERTY LABEL: Kp at 6 h

Kp at 6 h reading for CC(C)(C)[C@H](NC(=O)C(F)(F)F)C(=O)N1[C@H]2C[C@@H]([C@H]1C(=O)N[C@H](C#N)C[C@@H]1CCNC1=O)C1(CC1)C2 [Compound 11] : 1.6

* * *

ASSAY SUMMARY: Pharmacokinetics test of mice
Format: in vivo, C57BL/6J male mice
CONDITION INFO: mouse, plasma, po, 10 mg/kg, p.o. 10 mpk
PROPERTY LABEL: AUC(0-t) (µM·h)
Answers are plain numbers, in µM·h.

AUC(0-t) reading for CC(C)(C)[C@H](NC(=O)C(F)(F)F)C(=O)N1[C@H]2C[C@@H]([C@H]1C(=O)N[C@H](C#N)C[C@@H]1CCNC1=O)C1(CC1)C2 [Compound 11] : 1.52

* * *

ASSAY SUMMARY: Tissue distribution test in rats (after Ritonavir)
Type: in vivo, SD male rats
CONDITION INFO: rat, po, 30 mg/kg, 30 mpk intragastric, with Ritonavir, lung, read-out: Lung AUC(0-6 h)
PROPERTY LABEL: AUC at 6 h (µM·h)
Give bare numbers, in µM·h.

AUC at 6 h reading for CC(C)(C)[C@H](NC(=O)C(F)(F)F)C(=O)N1[C@H]2C[C@@H]([C@H]1C(=O)N[C@H](C#N)C[C@@H]1CCNC1=O)C1(CC1)C2 : 76.8

* * *

ASSAY SUMMARY: Pharmacokinetics test of mice
Assay type: in vivo, C57BL/6J male mice
CONDITION INFO: mouse, plasma, po, 10 mg/kg, p.o. 10 mpk
PROPERTY LABEL: Tmax (min)
Numbers only, in min.

Tmax reading for CC(C)(C)[C@H](NC(=O)C(F)(F)F)C(=O)N1[C@H]2C[C@@H]([C@H]1C(=O)N[C@H](C#N)C[C@@H]1CCNC1=O)C1(CC1)C2 : 15
